# System Name: hM1 (human Muscarinic receptor subtype 1) (Homo sapiens)
# Construct: expressed in transfected cells; host or cells: CHO cells (Chinese hamster ovary cells, ATCC)
# Test Protocol: Human M1 calcium mobilization FLIPR assay
# Format: cell-based
# Recorded Conditions: hM1 expressed in CHO cells, intracellular Ca2+ release, read-out: hM1 EC50
Observable: EC50 (nM)
Give bare numbers, in nM.

Known EC50 results, listed for orientation:
{"columns": ["Compound", "System Name", "Units Of Measure", "EC50"],
 "data": [
  ["C#CCOC(=O)N1CCC(C)(N2CCC(n3c(=O)[nH]c4cc(F)ccc43)CC2)C1 (single isomer, unassigned) [Example 25]", "hM1 (human Muscarinic receptor subtype 1) (Homo sapiens)", "nM", 1.8],
  ["CCOC(=O)N1CCC(C)(N2CCC(n3c(=O)[nH]c4cc(C)ccc43)CC2)C1 (single isomer, unassigned) [Example 13]", "hM1 (human Muscarinic receptor subtype 1) (Homo sapiens)", "nM", 70.1],
  ["C#CCOC(=O)N1CCC(C)(N2CCC(n3c(=O)[nH]c4cc(F)ccc43)CC2)C1 (single isomer, unassigned) [Example 36]", "hM1 (human Muscarinic receptor subtype 1) (Homo sapiens)", "nM", 32]
]}

// each compound listed below needs its EC50
1. CC1(N2CCC(n3c(=O)[nH]c4ccccc43)CC2)CCN(C(=O)OCCF)C1 (single isomer, unassigned) [Example 32]
2. COC(=O)N1CCC(C)(N2CCC(n3c(=O)[nH]c4cc(F)ccc43)CC2)C1 (stereo not shown) [Example 8]

OUTPUT:
[52.1, 18.3]

Provide EC50 for all items below, preserving their order.
1. CC#CCOC(=O)N1CCC(C)(N2CCC(n3c(=O)[nH]c4cc(C)ccc43)CC2)C1 (single isomer, unassigned) [Example 21]
2. CCNC(=O)N1CCC(C)(N2CCC(n3c(=O)[nH]c4ccccc43)CC2)C1 (stereo not shown)

OUTPUT:
1: 12.5; 2: 43.3

---

# System Name: hM1 (human Muscarinic receptor subtype 1) (Homo sapiens, UniProt P11229)
# Construct: expressed in transfected cells; host or cells: CHO cells (Chinese hamster ovary cells, ATCC)
# Test Protocol: Human M1 calcium mobilization FLIPR assay
# Assay type: cell-based
# Recorded Conditions: hM1 expressed in CHO cells, intracellular Ca2+ release, read-out: hM1 EC50
Observable: pEC50
Answers are plain numbers, as −log10 of the molar value.

Worked set:
{"columns": ["Molecule", "pEC50"],
 "data": [
  ["C#CCOC(=O)N1CCC(C)(N2CCC(n3c(=O)[nH]c4cc(C)ccc43)CC2)C1 (single isomer, unassigned) [Example 42]", 6.63],
  ["CC#CCOC(=O)N1CCC(C)(N2CCC(n3c(=O)[nH]c4ccc(C)cc43)CC2)C1 (single isomer, unassigned) [Example 18]", 6.80],
  ["CC1(N2CCC(n3c(=O)[nH]c4cc(F)c(F)cc43)CC2)CCN(C(=O)OCCF)C1 (single isomer, unassigned) [Example 62]", 7.10],
  ["CCOC(=O)N1CCC(C)(N2CCC(n3c(=O)[nH]c4cc(F)c(C)cc43)CC2)C1 (single isomer, unassigned) [Example 56]", 8.46],
  ["CC(C)OC(=O)N1CCC(C)(N2CCC(n3c(=O)[nH]c4ccc(F)cc43)CC2)C1 (single isomer, unassigned) [Example 65]", 6.98]
]}

// input: 2 molecules below; output: pEC50 for each
1. CCOC(=O)N1CCC(C)(N2CCC(n3c(=O)[nH]c4ccc(F)cc43)CC2)C1 (single isomer, unassigned) [Example 49]
2. CCOC(=O)N1CCC(C)(N2CCC(N3C(=O)Cc4ccccc43)CC2)C1 (single isomer, unassigned) [Example 73]

OUTPUT:
[7.82, 7.51]

Look up pEC50 for the entries below, preserving their order.
1. COC(=O)N1CCC(C)(N2CCC(n3c(=O)[nH]c4ccc(C)cc43)CC2)C1 (stereo not shown) [Example 17]
2. CCOC(=O)N1CCC(C)(N2CCC(n3c(=O)[nH]c4ccc(C)cc43)CC2)C1 (stereo not shown)
3. Cc1ccc2[nH]c(=O)n(C3CCN(C4(C)CCN(C(=O)OCCF)C4)CC3)c2c1 (single isomer, unassigned) [Example 28]
4. COC(=O)N1CCC(C)(N2CCC(n3c(=O)[nH]c4cc(C)ccc43)CC2)C1 (single isomer, unassigned) [Example 48]
5. CC1(N2CCC(n3c(=O)[nH]c4cc(F)c(F)cc43)CC2)CCN(C(=O)OCCF)C1 (single isomer, unassigned) [Example 61]

OUTPUT:
8.01
8.09
8.00
8.07
7.85

---

# System Name: hM1 (human Muscarinic receptor subtype 1) (Homo sapiens, UniProt P11229)
# Construct: expressed in transfected cells; host or cells: CHO cells (Chinese hamster ovary cells, ATCC)
# Sequence (P11229 1-460): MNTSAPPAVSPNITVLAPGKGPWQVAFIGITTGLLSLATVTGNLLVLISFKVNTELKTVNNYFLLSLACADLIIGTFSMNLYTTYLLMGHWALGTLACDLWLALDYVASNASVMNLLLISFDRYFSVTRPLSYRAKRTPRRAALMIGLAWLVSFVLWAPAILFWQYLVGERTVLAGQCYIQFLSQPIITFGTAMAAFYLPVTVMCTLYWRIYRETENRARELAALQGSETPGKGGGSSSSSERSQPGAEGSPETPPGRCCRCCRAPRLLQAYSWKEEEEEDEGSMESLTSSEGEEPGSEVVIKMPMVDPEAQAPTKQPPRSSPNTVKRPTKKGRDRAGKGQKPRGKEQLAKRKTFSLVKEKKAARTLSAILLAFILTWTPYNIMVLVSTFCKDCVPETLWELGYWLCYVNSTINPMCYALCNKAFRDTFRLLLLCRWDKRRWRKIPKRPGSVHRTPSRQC
# Test Protocol: Human M1 calcium mobilization FLIPR assay
# Type: cell-based
# Recorded Conditions: hM1 expressed in CHO cells, intracellular Ca2+ release, read-out: hM1 EC50
pEC50: −log10 of the molar value.
Given measured pEC50, output 1 if it is greater than or equal to 8 and 0 if not.

INPUT: Item COC(=O)N1CCC(C)(N2CCC(N3C(=O)Cc4ccccc43)CC2)C1 (centres unmarked) with pEC50 of 8 or above?
OUTPUT: 0

INPUT: Does the compound CCOC(=O)N1CCC(C)(N2CCC(n3c(=O)[nH]c4cc(F)c(F)cc43)CC2)C1 (single isomer, unassigned) [Example 58] have recorded pEC50 that is 8 or more?
OUTPUT: 0

INPUT: Is pEC50 at least 8? Consider COC(=O)N1CCC(C)(N2CCC(N3C(=O)Cc4ccc(F)cc43)CC2)C1 (single isomer, unassigned) [Example 77]
OUTPUT: 0

---

# System Name: cloned human M4 receptor (human Muscarinic receptor subtype 4) (Homo sapiens)
# Construct: purchased Perkin-Elmer RBHM4M; host or cells: Chinese hamster ovary cells (CHO) membranes
# Sequence (P08173 1-479): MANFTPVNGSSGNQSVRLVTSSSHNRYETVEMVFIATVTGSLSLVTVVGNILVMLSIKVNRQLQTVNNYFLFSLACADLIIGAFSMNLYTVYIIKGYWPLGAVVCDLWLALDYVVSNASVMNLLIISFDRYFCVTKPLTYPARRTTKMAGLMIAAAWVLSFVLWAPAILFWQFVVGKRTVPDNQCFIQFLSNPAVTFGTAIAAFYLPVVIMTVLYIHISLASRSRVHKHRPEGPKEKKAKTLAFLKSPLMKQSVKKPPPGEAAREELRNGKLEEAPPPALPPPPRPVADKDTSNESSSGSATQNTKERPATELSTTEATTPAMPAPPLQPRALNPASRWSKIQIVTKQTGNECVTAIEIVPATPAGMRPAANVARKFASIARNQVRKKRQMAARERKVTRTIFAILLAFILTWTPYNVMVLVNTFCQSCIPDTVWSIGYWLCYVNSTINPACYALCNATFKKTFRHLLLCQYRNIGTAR
# Test Protocol: hM4 receptor GTPγS binding
# Format: biochemical
# Recorded Conditions: CHO cell membranes expressing hM4; [35S]GTPγS binding; read-out: hM4 EC50
Provide the recorded EC50 for the entries that follow.

The examples below pair each entry with its known result.
{"columns": ["Compound", "Test Value"],
 "data": [
  ["CCOC(=O)N1CCC(C)(N2CCC(N3C(=O)Cc4ccccc43)CC2)C1 (single isomer, unassigned) [Example 72]", "> 90 µM"],
  ["CCOC(=O)N1CCC(C)(N2CCC(N3C(=O)Cc4cc(F)ccc43)CC2)C1 (single isomer, unassigned) [Example 80]", "> 21.8 µM"]
]}

Consider now this further compound.
INPUT: Can you look up the measured EC50 of CCOC(=O)N1CCC(C)(N2CCC(n3c(=O)[nH]c4cc(F)ccc43)CC2)C1 (single isomer, unassigned) [Example 7] for me?
OUTPUT: > 24.4 µM

meta.source: patent US20090221642A1
